Values compiled from paper PMC12416549.

# TARGET_UNDER_TEST: T1, TNFR1 (Homo sapiens, UniProt P19438)
# T1 chain: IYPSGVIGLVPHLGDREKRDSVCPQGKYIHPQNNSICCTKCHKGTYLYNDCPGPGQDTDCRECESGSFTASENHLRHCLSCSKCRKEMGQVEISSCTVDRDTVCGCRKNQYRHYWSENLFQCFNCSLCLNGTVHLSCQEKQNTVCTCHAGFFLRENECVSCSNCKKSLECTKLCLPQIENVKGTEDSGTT
# ASSAY_INFO: yeast display SC50
Assignment: determine reported apparent Kd (screen) for the given binders.
Numbers only, in nM.

Dear colleague, could you send me apparent Kd (screen) for each of the items below? Thanks.
1. A102H (designed binder) MTLQELLREEALRRAEAEAFRYALELLAEKFPEQKEYLLDLAEEIESQIRSLSGVDVEDVRKFLDKEWAWVKELLAEHPAELAEVEAARAARLAELRAEVEHKVAA
2. A105C (designed binder) MTLQELLREEALRRAEAEAFRYALELLAEKFPEQKEYLLDLAEEIESQIRSLSGVDVEDVRKFLDKEWAWVKELLAEHPAELAEVEAARAARLAELRAEVEAKVCA

## Output
1: 1.16; 2: 0.653

Would you be so kind as to report apparent Kd (screen) for each listed record?
1. A15R (designed binder) MTLQELLREEALRRREAEAFRYALELLAEKFPEQKEYLLDLAEEIESQIRSLSGVDVEDVRKFLDKEWAWVKELLAEHPAELAEVEAARAARLAELRAEVEAKVAA
2. T2P (designed binder) MPLQELLREEALRRAEAEAFRYALELLAEKFPEQKEYLLDLAEEIESQIRSLSGVDVEDVRKFLDKEWAWVKELLAEHPAELAEVEAARAARLAELRAEVEAKVAA

## Output
0.718
0.718
